EXPERIMENTAL PROTOCOL: Plasma pharmacokinetics in patients
Type: in vivo, human
RECORDED CONDITIONS: human, plasma, oral, 340 mg, AUC 0-24, geometric mean, Day 1, 340 mg QD, 7 patients
QUANTITY NAME: AUC(0-t)
Could you kindly put the unit after your number?

For record "CS(=O)(=O)N1CCN(Cc2cc3nc(-c4cccc5[nH]ncc45)nc(N4CCOCC4)c3s2)CC1" the listed AUC(0-t) is 14.9 µM·h

----------
EXPERIMENTAL PROTOCOL: Plasma pharmacokinetics in patients
Type: in vivo, human
RECORDED CONDITIONS: human, plasma, oral, 30 mg, Cmax, geometric mean, Day 1, 30 mg QD, 3 patients
QUANTITY NAME: Cmax (nM)
One number for each entry, in nM.

For record "CS(=O)(=O)N1CCN(Cc2cc3nc(-c4cccc5[nH]ncc45)nc(N4CCOCC4)c3s2)CC1" the listed Cmax is 144

----------
EXPERIMENTAL PROTOCOL: Plasma pharmacokinetics in patients
Type: in vivo, human
RECORDED CONDITIONS: human, plasma, oral, 245 mg, Tmax, median, Day 1, 245 mg QD, 3 patients
QUANTITY NAME: Tmax (h)
Give bare numbers, in h.

For record CS(=O)(=O)N1CCN(Cc2cc3nc(-c4cccc5[nH]ncc45)nc(N4CCOCC4)c3s2)CC1 [pictilisib] the listed Tmax is 2

// data source = paper PMC4287394
